Biological target: T1, HU-3pE-beta-Amyloid (human)
T1 construct: also called the peptide
T1 sequence (P05067 674-699): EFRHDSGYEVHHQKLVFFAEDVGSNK
Test: SPR (per Example 5); antigen peptide not given
A collection of binders and their measured Kd
Number in nM, nothing else.

Value of measured Kd for the entry BAMB630 (antibody, human IgG1, kappa, V domains shown, HFA variant of BAMB31, human IgG1) VH: QVQLVQSGAEVKKPGASVKVSCKASGHVFTSYDMYWVKQAPGQSLEWIGYIDSDNGDTSYNQKFKGKVTLTVDTSTSTVYMELSSLRSEDTAVYYCAYYRYAMDYWGQGTLVTVSS VL: DVVMTQSPLSLPVTLGQPASISCKSSQSLLDSRAKTYLTWLLQRPGQSPRRLIYLVSKLDSGVPDRFSGSGSGTDFTLKISRVEAEDVGVYYCWQGTHFPYTFGGGTKLEIKR : 0.0383

Further cases:
Value of measured Kd for the entry BAMB614 (antibody, human IgG1, kappa, V domains shown, HFA variant of BAMB31, human IgG1) VH: QVQLVQSGAEVKKPGASVKVSCKASGHVFTSYDMYWVRQAPGQGLEWIGYIDSDNGDTSYNQKFKGRVTLTVDTSTSTVYMELSSLRSEDTAVYYCAYYRYAMDYWGQGTLVTVSS VL: DVVMTQSPLSLPVTLGQPASISCKSSQSLLDSRAKTYLTWLQQRPGQSPRRLIYLVSKLDSGVPDRFSGSGSGTDFTLKISRVEAEDVGVYYCWQGTHFPYTFGGGTKLEIKR : 0.016

Value of measured Kd for the entry BAMB613 (antibody, human IgG1, kappa, V domains shown, HFA variant of BAMB31, human IgG1) VH: QVQLVQSGAEVKKPGASVKVSCKASGHVFTSYDMYWVRQAPGQGLEWIGYIDSDNGDTSYNQKFKGKVTLTVDTSTSTVYMELSSLRSEDTAVYYCAYYRYAMDYWGQGTLVTVSS VL: DVVMTQSPLSLPVTLGQPASISCKSSQSLLDSRAKTYLTWLQQRPGQSPRRLIYLVSKLDSGVPDRFSGSGSGTDFTLKISRVEAEDVGVYYCWQGTHFPYTFGGGTKLEIKR : 0.0182

Value of measured Kd for the entry BAMB631 (antibody, human IgG1, kappa, V domains shown, HFA variant of BAMB31, human IgG1) VH: QVQLVQSGAEVKKPGASVKVSCKASGHVFTSYDMYWVRQAPGQSLEWMGYIDSDNGDTSYNQKFKGRVTLTVDTSTSTVYMELSSLRSEDTAVYYCAYYRYAMDYWGQGTLVTVSS VL: DVVMTQSPLSLPVTLGQPASISCKSSQSLLDSRAKTYLTWLLQRPGQSPRRLIYLVSKLDSGVPDRFSGSGSGTDFTLKISRVEAEDVGVYYCWQGTHFPYTFGGGTKLEIKR : 0.018
